B1: ADD1 (parent)
chain: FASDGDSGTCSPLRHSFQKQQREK

Variants of: B1
Test: protein stability index of a GFP-peptide fusion (GPS, HEK-293T) (PSI 1-6); higher = more stable;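 note: lentivirally expressed fusions sorted by FACS into six bins by GFP to DsRed ratio, PSI derived from sequencing read proportions per bin multiplied by bin number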
Conditions: c terminus: a fixed tail appended
ASSAY_ENDPOINT: protein stability index
No unit in the answer, only the number.

Here is how some variants turned out for protein stability index.
Query: Please give the measured protein stability index for this variant: S7C
Result: 2.96

Query: Please give the measured protein stability index for this variant: S16Q
Result: 4.27

Query: Please give the measured protein stability index for this variant: F1S
Result: 5.12

Others:
Query: Please give the measured protein stability index for this variant: D4V
Result: 2.44

Query: Please give the measured protein stability index for this variant: Q18S
Result: 3.52

Query: Please give the measured protein stability index for this variant: Q21F
Result: 3.89

Query: Please give the measured protein stability index for this variant: Q20R
Result: 4.05

Query: Please give the measured protein stability index for this variant: C10G
Result: 4.49

Query: Please give the measured protein stability index for this variant: T9I
Result: 2.49
